IC50, IRAK4 (Homo sapiens (Human)): measured values
measurement.label: IC50 (nM)

[I] CC(C)Oc1c(C(=O)Nc2cccn([C@H]3C[C@H]3F)c2=O)cn2cc([C@]34CC[C@](C)(C3)OC4)nc2c1F (single isomer, unassigned)
[II] COC12CC(c3cn4cc(C(=O)Nc5cccn(C6CC6)c5=O)c(OC(C)C)cc4n3)(C1)C2
[III] CC[C@@H](C)Oc1nc2nc(C34COC(C)(C3)C4)cn2cc1C(=O)Nc1cccn([C@@H]2C[C@@H]2F)c1=O (single isomer, unassigned) [Example 57]
Request: List the compounds shown above again, sorted by falling IC50 values. Answer with the labels in sequence, matching the requested order.
Response: III, I, II
(III: 23 nM, I: 0.7 nM, II: 0.4 nM)

* * *

- measured.on: IRAK4 (Homo sapiens (Human))
- Sequence (Q9NWZ3 whole entry): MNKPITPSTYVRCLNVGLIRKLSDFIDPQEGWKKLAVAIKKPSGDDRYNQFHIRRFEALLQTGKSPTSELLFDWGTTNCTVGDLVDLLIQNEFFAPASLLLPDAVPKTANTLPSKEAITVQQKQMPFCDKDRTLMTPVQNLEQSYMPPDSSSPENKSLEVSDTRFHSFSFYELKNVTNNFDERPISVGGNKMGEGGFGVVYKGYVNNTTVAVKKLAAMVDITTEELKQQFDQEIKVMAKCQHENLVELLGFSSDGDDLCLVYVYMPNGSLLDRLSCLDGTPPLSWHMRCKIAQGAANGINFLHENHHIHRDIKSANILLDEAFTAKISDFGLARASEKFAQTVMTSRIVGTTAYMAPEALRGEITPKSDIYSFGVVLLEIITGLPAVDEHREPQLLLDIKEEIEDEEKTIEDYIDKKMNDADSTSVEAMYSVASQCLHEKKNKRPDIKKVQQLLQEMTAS
Where a name gives a salt, the structure may show the parent alone.
measurement.label: IC50 (nM)

Some molecules with recorded IC50:
CCOc1nc2nc(C34COC(C)(C3)C4)cn2cc1C(=O)Nc1cccn(C2CC2)c1=O [Example 43] ... 1.3
CC(C)Oc1cc2nc([C@@]34CC[C@@](C)(C3)OC4)cn2cc1C(=O)Nc1cccn(C2C[C@H]2C)c1=O (stereo partly shown) [Example 98] ... 0.7
C[C@@H]1C[C@@H]1n1cccc(NC(=O)c2cn3cc(C45COC(C)(C4)C5)nc3nc2OC2CCC2)c1=O [Example 188, trifluoroacetate] ... 0.8
CC(Oc1cc2nc(C34COC(C)(C3)C4)cn2cc1C(=O)Nc1cccn(C2CC2)c1=O)C(F)F (stereo not shown) [Example 102] ... 0.3
CC(C)Oc1cc2nc([C@@]34CC[C@@](C)(C3)OC4)cn2cc1C(=O)Nc1cccn([C@H]2C[C@H]2C)c1=O [Example 182, trifluoroacetate] ... 0.2
CC(C)Oc1c(C(=O)Nc2cccn([C@@H]3C[C@H]3C)c2=O)cn2cc(C34COC(C)(C3)C4)nc2c1F [Example 147] ... 15.9
CC(C)Oc1cc2nc([C@@]34CC[C@@H](C3)OC4)cn2cc1C(=O)Nc1cccn(C2CC2)c1=O (single isomer, unassigned) [Example 39] ... 0.2
CC[C@H](C)Oc1cc2nc(C34COC(C)(C3)C4)cn2cc1C(=O)Nc1cccn(C2CC2)c1=O [Example 19] ... 0.5

[a] CC(C)Oc1nc2nc(C34CCC(C)(C3)OC4)cn2cc1C(=O)Nc1cccn([C@H]2C[C@H]2C)c1=O (stereo in doubt) [Example 187, trifluoroacetate]
[b] O=C(Nc1cccn(C2CC2F)c1=O)c1cn2cc([C@]34CO[C@](CF)(C3)C4)nc2nc1OC1CCC1 (mixture of isomers) [Example 106]
Request: // which entry has the larger IC50 value, a or b ? To answer, give the label that identifies your chosen option.
Response: b
(b: 0.5 nM, a: 0.2 nM)

[A] CC(C)Oc1nc2nc([C@@]34CC[C@@](C)(C3)OC4)cn2cc1C(=O)Nc1ccn(C)n1 (single isomer, unassigned) [Comparator 4C, reference compound]
[B] CC(C)Oc1nc2nc(C34CCC(C)(CC3)OC4)cn2cc1C(=O)Nc1ccn(C)n1 [Comparator 6C, reference compound]
[C] O=C(Nc1cccn([C@@H]2C[C@@H]2F)c1=O)c1cn2cc(C34COC(C3)C4)nc2nc1OC1CCC1 (single isomer, unassigned) [Example 166]
Request: Rank ascending by IC50. Answer with the labels in sequence, matching the requested order.
Response: B, A, C
(B: 0.9 nM, A: 2.5 nM, C: 41 nM)

* * *

- measured.on: MDR1 (Homo sapiens (Human), UniProt P08183)
- Sequence (P08183 whole entry): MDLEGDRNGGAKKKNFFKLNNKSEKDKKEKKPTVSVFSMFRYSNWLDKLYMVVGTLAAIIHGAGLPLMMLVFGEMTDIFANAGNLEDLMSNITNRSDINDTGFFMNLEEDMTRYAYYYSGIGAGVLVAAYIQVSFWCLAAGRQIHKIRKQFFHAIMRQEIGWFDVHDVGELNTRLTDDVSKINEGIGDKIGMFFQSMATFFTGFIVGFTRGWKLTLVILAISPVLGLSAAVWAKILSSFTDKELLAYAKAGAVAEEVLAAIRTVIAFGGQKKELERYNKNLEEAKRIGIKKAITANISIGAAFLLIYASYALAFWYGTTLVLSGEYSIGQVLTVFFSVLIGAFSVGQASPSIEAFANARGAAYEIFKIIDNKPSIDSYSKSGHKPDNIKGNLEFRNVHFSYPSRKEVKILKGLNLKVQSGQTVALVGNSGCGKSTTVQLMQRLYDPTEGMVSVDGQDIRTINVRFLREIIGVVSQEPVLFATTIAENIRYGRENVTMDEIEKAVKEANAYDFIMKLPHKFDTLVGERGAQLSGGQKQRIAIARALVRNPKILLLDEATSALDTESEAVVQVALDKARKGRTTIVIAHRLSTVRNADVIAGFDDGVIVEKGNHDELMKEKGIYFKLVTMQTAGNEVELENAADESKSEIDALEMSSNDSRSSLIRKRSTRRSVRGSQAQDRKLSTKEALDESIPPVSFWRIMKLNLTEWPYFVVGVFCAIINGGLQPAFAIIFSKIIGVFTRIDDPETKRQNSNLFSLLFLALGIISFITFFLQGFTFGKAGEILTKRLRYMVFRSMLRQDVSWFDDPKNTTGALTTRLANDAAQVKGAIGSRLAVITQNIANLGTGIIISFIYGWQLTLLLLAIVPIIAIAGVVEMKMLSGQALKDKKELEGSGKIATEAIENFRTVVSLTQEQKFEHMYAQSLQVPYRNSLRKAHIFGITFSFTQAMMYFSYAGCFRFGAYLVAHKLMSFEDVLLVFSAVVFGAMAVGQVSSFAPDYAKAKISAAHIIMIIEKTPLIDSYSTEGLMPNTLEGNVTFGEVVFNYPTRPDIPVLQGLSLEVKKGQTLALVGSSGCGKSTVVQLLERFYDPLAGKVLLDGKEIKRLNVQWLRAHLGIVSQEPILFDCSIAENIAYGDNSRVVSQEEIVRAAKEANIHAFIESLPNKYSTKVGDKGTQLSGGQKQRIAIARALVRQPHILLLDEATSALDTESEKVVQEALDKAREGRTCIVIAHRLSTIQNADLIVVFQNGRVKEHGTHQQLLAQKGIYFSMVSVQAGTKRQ
- test.details: in vitro
- applied.conditions: MDCK-MDR1
measurement.label: efflux ratio at 120 min, 1 μM

Some molecules with recorded efflux ratio at 120 min, 1 μM:
CC(C)Oc1c(C(=O)Nc2cccn([C@H]3C[C@@H]3C)c2=O)cn2cc(C34COC(C)(C3)C4)nc2c1F [Example 146] ... 1.7
CO[C@H]1C[C@@H]1n1cccc(NC(=O)c2cn3cc(C45COC(C)(C4)C5)nc3nc2OC(C)C)c1=O (single isomer, unassigned) [Example 138] ... 3.8

[A] C[C@]12CC[C@](c3cn4cc(C(=O)Nc5cccn(C6CC6)c5=O)c(OC5CCC5)nc4n3)(CO1)C2 (single isomer, unassigned) [Example 17]
[B] CC(C)Oc1nc2nc([C@@]34CC[C@@](C)(C3)OC4)cn2cc1C(=O)Nc1cccn([C@@H]2C[C@H]2C)c1=O (single isomer, unassigned) [Example 148]
[C] CC12CC(c3cn4cc(C(=O)Nc5cccn([C@H]6C[C@H]6F)c5=O)c(OC5CCC5)nc4n3)(CO1)C2 (single isomer, unassigned) [Example 114]
[D] CC(C)Oc1nc2nc([C@]34CC[C@](C)(C3)OC4)cn2cc1C(=O)Nc1cccn([C@@H]2CC23CC3)c1=O (single isomer, unassigned) [Example 153]
[E] CC(C)Oc1nc2nc([C@@]34CC[C@@](C)(C3)OC4)cn2cc1C(=O)Nc1cccn(C)c1=O [Comparator 4D, reference compound]
Request: # desc sort on efflux ratio at 120 min, 1 μM across 5 molecules Answer with the labels in sequence, matching the requested order.
Response: C, E, A, B, D

* * *

- test.details: Kinetic solubility assay (CLND), pH 6.8
- Type: physicochemical
- applied.conditions: aqueous buffer, kinetic from dmso stock; potassium phosphate buffer pH 6.8, 2% DMSO, 24 hours at ambient temperature
Structures can show the parent of a compound that is named as a salt.
measurement.label: solubility kinetic at 24 h (µg/mL)

Some compounds with recorded solubility kinetic at 24 h:
C[C@@H]1C[C@@H]1n1cccc(NC(=O)c2cn3cc(C45COC(C)(C4)C5)nc3nc2OC2CCC2)c1=O [Example 188, trifluoroacetate] ... 49.7
CC12CC(c3cn4cc(C(=O)Nc5cccn([C@@H]6C[C@@H]6F)c5=O)c(OC5CCC5)nc4n3)(CO1)C2 (single isomer, unassigned) ... 59.5
CC12CCC(c3cn4cc(C(=O)Nc5cccn(C6CC6)c5=O)c(OC5CCC5)cc4n3)(CC1)CO2 ... 56
CC[C@@H](C)Oc1nc2nc(C34COC(C)(C3)C4)cn2cc1C(=O)Nc1cccn([C@H]2C[C@H]2F)c1=O (single isomer, unassigned) ... 72.1

[a] CC(Oc1cc2nc(C34COC(C)(C3)C4)cn2cc1C(=O)Nc1cccn(C2CC2)c1=O)C(F)F (stereo not drawn)
[b] CC(C)Oc1nc2nc([C@]34CC[C@](C)(C3)OC4)cn2cc1C(=O)Nc1cccn([C@@H]2C[C@H]2C)c1=O (single isomer, unassigned)
Request: // which entry has the larger solubility kinetic at 24 h value, a or b ? To answer, give the label that identifies your chosen option.
Response: a

* * *

- measured.on: MDR1 (Homo sapiens (Human))
- test.details: in vitro
- applied.conditions: MDCK-MDR1
measurement.label: efflux ratio at 120 min, 1 μM

Some molecules with recorded efflux ratio at 120 min, 1 μM:
O=C(Nc1cccn([C@@H]2C[C@@H]2F)c1=O)c1cn2cc(C34COC(C3)C4)nc2nc1OC1CCC1 (racemic) [Example 86] ... 0.9
CC(C)Oc1nc2nc(C34COC(C)(C3)C4)cn2cc1C(=O)Nc1cccc(C(F)F)n1 [Comparator 2A, reference compound] ... 1.1
CC(C)Oc1nc2nc(C34CCC(C)(CC3)OC4)cn2cc1C(=O)Nc1cccc(C(F)F)n1 [Comparator 5A, reference compound] ... 1
CC[C@@H](C)Oc1cc2nc(C34COC(CF)(C3)C4)cn2cc1C(=O)Nc1cccn(C2CC2)c1=O (single isomer, unassigned) [Example 14] ... 4.8

[A] CC[C@@H](C)Oc1nc2nc(C34COC(C)(C3)C4)cn2cc1C(=O)Nc1cccn([C@@H]2C[C@@H]2F)c1=O (mixture of isomers) [Example 41]
[B] CC(C)Oc1c(C(=O)Nc2cccn(C3CC3)c2=O)cn2cc([C@]34CC[C@](C)(C3)OC4)nc2c1F (single isomer, unassigned) [Example 68]
Request: // which entry has the larger efflux ratio at 120 min, 1 μM value, A or B ? To answer, give the label that identifies your chosen option.
Response: A

* * *

- test.details: Kpuu assay (in vivo brain-to-plasma unbound partition)
- applied.conditions: brain (unbound) versus plasma (unbound); intravenous infusion 4 to 24 h; unbound brain/plasma ratio; read-out: Brain Kpu, u
Where a name gives a salt, the structure may show the parent alone.
measurement.label: Kpuu (unbound brain-to-plasma partition coefficient)

CC(C)Oc1nc2nc([C@@]34CC[C@@](C)(C3)OC4)cn2cc1C(=O)Nc1cccc(C(F)F)n1 (single isomer, unassigned) [Comparator 4A, reference compound] ... 0.4
CC(C)Oc1nc2nc(C34CCC(C)(CC3)OC4)cn2cc1C(=O)Nc1cccn(C)c1=O [Comparator 6D, reference compound] ... 0.4
CC[C@@H](C)Oc1nc2nc(C34COC(C)(C3)C4)cn2cc1C(=O)Nc1cccn(C2CC2)c1=O (single isomer, unassigned) ... 0.48

[P] CC(C)Oc1nc2nc([C@]34CC[C@](C)(C3)OC4)cn2cc1C(=O)Nc1cccn([C@H]2C[C@H]2C)c1=O (single isomer, unassigned) [Example 186, trifluoroacetate]
[Q] CC(C)Oc1nc2nc(C34CCC(C)(CC3)OC4)cn2cc1C(=O)Nc1cccn(C2CC2)c1=O
Request: // which entry has the larger Kpuu (unbound brain-to-plasma partition coefficient) value, P or Q ? To answer, give the label that identifies your chosen option.
Response: Q
(Q: 0.61, P: 0.32)
